system: α-isomaltosylglucosaccharide-forming enzyme; assay: Action on saccharides (substrates), Enzyme of Strain C11; type: biochemical, Bacillus globisporus C11; design: key: −: it showed no change; +: it showed a slight reduction of the color spot of the substrate and the formation of other reaction product; ++: it showed a high reduction of the color spot of the substrate and the formation of other reaction product; +++: it showed a substantial disappearance of the substrate spot and the formation of other reaction product; conditions: two units/g substrate, substrate 2% (w/v), 30° C., pH 6.0, 24 hours, TLC

compound	Enzymatic action, Enzyme of Strain C11
OC[C@H]1O[C@H](O[C@H]2O[C@H](CO)[C@@H](O[C@H]3O[C@H](CO)[C@@H](O)[C@H](O)[C@H]3O)[C@H](O)[C@H]2O)[C@H](O)[C@@H](O)[C@@H]1O [Maltosyl glucoside]	++
OC[C@H]1O[C@@](CO)(O[C@H]2O[C@H](CO)[C@@H](O)[C@H](O)[C@H]2O)[C@@H](O)[C@@H]1O [Sucrose]	−
OC[C@H]1O[C@H](OC[C@H]2OC(O)[C@H](O)[C@@H](O)[C@@H]2O)[C@H](O)[C@@H](O)[C@@H]1O (stereo partly drawn) [Isomaltose]	−
